Experiment: absolute recovery over mixed-bed multilayer solid-phase extraction; higher = better recovery
Settings: wastewater influent; enrichment method: SPE
So basically: absolute recovery at 90% or higher? That is 1. Lower than 90%? That is 0.

                                   molecule  assigned_class
0              Clc1ccccc1C[NH+]1CCc2sccc2C1               0
1  COC=C(C(=O)[O-])c1ccccc1Oc1cc(Oc2ccccc2C#N)ncn1               1
2                  Cc1cc(Cl)ccc1OCC(=O)[O-]               1
3  CC([NH3+])C12CC3CC(CC(C3)C1)C2 (stereo unspecified)               0
4  CCN(C)C(=O)Oc1cccc(C(C)[NH+](C)C)c1 (stereo unspecified)               1
5                  CC(C)N(C(=O)CCl)c1ccccc1               1
6          CCOP(=S)(OCC)Oc1cc(C)nc(C(C)C)n1               0
7                  CCNC(=O)NC(=O)C(C#N)=NOC               1

====

Test: absolute recovery over mixed-bed multilayer solid-phase extraction; higher = better recovery
Conditions: wastewater influent; enrichment method: SPE
OBSERVABLE: absolute recovery

In [3]: df
Out[3]:
                                   molecule         observable  test_value
0  O=C1C=CC(=C2NC=CNC2=O)C=C1 [Amoxicillin-EP-Impurity-F]  absolute recovery       91.7%
1  COC(=O)c1ccc(I)cc1S(=O)(=O)[N-]C(=O)Nc1nc(C)nc(OC)n1 [Iodosulfuron-methyl]  absolute recovery       92.8%
2  Nc1ccc(C=Cc2ccc(N)cc2S(=O)(=O)[O-])c(S(=O)(=O)[O-])c1 [4-4-diamino-2,2-stilbenedisulfonic-acid]  absolute recovery        7.8%
3  CC(C)(C)C(O)C(Oc1ccc(Cl)cc1)n1cncn1 (centres undefined) [Triadimenol-A]  absolute recovery       94.1%
4  N#Cc1nn(-c2c(Cl)cc(C(F)(F)F)cc2Cl)c(N)c1S(=O)C(F)(F)F (centres undefined) [Fipronil]  absolute recovery       88.5%
5  COC(=O)C1C(OC(=O)c2ccccc2)CC2CCC1[NH+]2C (centres undefined) [Cocaine]  absolute recovery       94.5%
6  N#CC1CCCN1C(=O)C[NH2+]C12CC3CC(CC(O)(C3)C1)C2 (centres undefined) [Vildagliptin]  absolute recovery       93.2%
7  CC(O)C(=O)Nc1c(I)c(C(=O)NC(CO)CO)c(I)c(C(=O)NC(CO)CO)c1I (centres undefined) [Iopamidol]  absolute recovery         53%
8          CN(C)C(=O)NC1CCCCCCC1 [Cycluron]  absolute recovery       94.2%

====

The following compounds are listed with their measured absolute recovery values.
Experiment: absolute recovery over mixed-bed multilayer solid-phase extraction; higher = better recovery
Details: nanopure water; enrichment method: SPE
OBSERVABLE: absolute recovery (%)

>>> print(df.to_string())
                                    compound  units_of_measure  test_value
 0  Nc1ccc(S(=O)(=O)[N-]c2nccs2)cc1 [Sulfathiazol]                 %        92.4
 1  CC1(C)C(=O)Oc2ccc(OS(C)(=O)=O)cc21 [Ethofumesat-2-keto]                 %        69.5
 2  CSc1nc(N)nc(NC(C)(C)C)n1 [Irgarol-descyclopropyl]                 %         107
 3  CNC(=O)Oc1cccc2c1OC(C)(C)C2 [Carbofuran]                 %        91.7
 4  C[N+]1([O-])CCN2c3ccccc3Cc3ccccc3C2C1 (centres undefined) [Mianserin-N-Oxide]                 %        93.7
 5  CN1COCN(Cc2cnc(Cl)s2)C1=N[N+](=O)[O-] [Thiamethoxam]                 %        98.4
 6  N#Cc1c[nH]cc1-c1cccc2c1OC(F)(F)O2 [Fludioxonil]                 %         101
 7  CCCCOCCOCCOCc1cc2c(cc1CCC)OCO2 [Piperonyl-butoxide]                 %        75.2
 8  Nc1nnc(-c2cccc(Cl)c2Cl)c(N)n1 [Lamotrigin]                 %        96.2
 9  CC[NH+](CC)CC(=O)Nc1c(C)cccc1C [Lidocain]                 %        97.1
10  CC(=O)N1CCN(c2ccc(OCC3COC(Cn4cc[nH+]c4)(c4ccc(Cl)cc4Cl)O3)cc2)CC1 (centres undefined) [Ketoconazol]                 %        80.2
11  CCOP(=S)(OCC)Oc1cc(C)nc(C(C)C)n1 [Diazinon]                 %        77.6
12  COC(=O)C(C)N(C(=O)Cc1ccccc1)c1c(C)cccc1C (centres undefined) [Benalaxyl]                 %        95.9
13  CC=C1[NH+](C)C(C)CC1(c1ccccc1)c1ccccc1 (centres undefined) [EDDP (=2-Ethylidene-1-5-dimethyl-3-3-diphenylpyrrolidin)]                 %        33.8
14      O=c1ncnc2[nH][nH]cc1-2 [Allopurinol]                 %         113
15  CCOC(=O)C1CC(=O)C(=C([O-])C2CC2)C(=O)C1 (centres undefined) [Trinexapac-ethyl]                 %        93.6
16  CCC(C(N)=O)N1CCCC1=O (centres undefined) [Levetiracetam]                 %        65.6
17  CC(C)CC(C)(O)C#CC(C)(O)CC(C)C (centres undefined) [Surfynol-104A]                 %        86.2
18  COCCc1ccc(OCC(O)C[NH2+]C(C)C)cc1 (centres undefined) [Metoprolol]                 %        94.8
19  CCCC(C)(COC(N)=O)COC(=O)NC(C)C (centres undefined) [Carisoprodol]                 %        99.3
20  CC12CCC(=O)C=C1CCC1C2C(=O)CC2(C)C1CCC2(O)C(=O)CO (centres undefined) [Cortison]                 %        74.9
21  COc1cc2[nH+]c(N3CCN(C(=O)C4COc5ccccc5O4)CC3)nc(N)c2cc1OC (centres undefined) [Doxazosin]                 %        92.5
22  C[NH+]1C2CCC1C(C(=O)[O-])C(OC(=O)c1ccccc1)C2 (centres undefined) [Benzoylecgonin]                 %        97.8
23  CC(=O)N(C)c1ccc(N)cc1 [N-(4-Aminophenyl)-N-methyl-acetamid]                 %        64.8
24  CC(C)(Oc1ccc(C(=O)c2ccc(Cl)cc2)cc1)C(=O)[O-] [Fenofibric-acid]                 %        98.5
25  C#CC[N+](C)([O-])C(C)Cc1ccccc1 (centres undefined) [Deprenyl-N-Oxide]                 %        68.6
26   N#CN=C1SCCN1Cc1ccc(Cl)nc1 [Thiacloprid]                 %        97.8
27    O=C([O-])C(F)(F)C(F)(F)C(F)(F)F [PFBA]                 %        95.9
28  CCC[NH+](CC)CC1COC2(CCC(C(C)(C)C)CC2)O1 (centres undefined) [Spiroxamin]                 %          83
29  O=C(Cc1ccccc1)NC(=NOCC1CC1)c1c(C(F)(F)F)ccc(F)c1F [Cyflufenamid]                 %        91.9
30  CC(COc1ccccc1Cc1ccccc1)[NH+]1CCCCC1 (centres undefined) [Benproperine]                 %        93.2
31    O=C1[N-]S(=O)(=O)c2ccccc21 [Saccharin]                 %         101
32  C[NH2+]CC(c1ccc(O)cc1)C1(O)CCCCC1 (centres undefined) [N-O-Didesvenlafaxin]                 %          80
33  CSc1nc(=O)c(C(C)(C)C)n[n-]1 [Metribuzin-Desamino (=DA)]                 %        96.2
34  CCCCOc1ccc(OCCC[NH+]2CCOCC2)cc1 [Pramoxine]                 %        87.7
35  CC(C)N(C(=O)C(=O)[O-])c1ccc(F)cc1 [Flufenacet-OXA]                 %        93.7
36  CCN(C)C(=O)Oc1cccc(C(C)[NH+](C)C)c1 (centres undefined) [Rivastigmin]                 %        90.4
37  NC(=O)N1c2ccccc2C=Cc2ccccc21 [Carbamazepin]                 %          99
38  COc1ccc(C(=O)c2ccccc2)c(O)c1 [Benzophenon-3 (=2-Hydroxy-4-methoxybenzophenon)]                 %         100
